# System: Fibroblast
# experiment: Multiplex assay against human fibroblast
# Format: toxicity, cell-based
# particulars: 48 h, 10 µM, compound concentration 10 uM, replicate 1
The following compounds are shown together with reported Population Pyknosed Nuclei (%) values.
Quick reminder: number only, in %, skip the unit.

CC(Cc1ccc(O)c(O)c1)C(C)Cc1ccc(O)c(O)c1 (centres undefined) [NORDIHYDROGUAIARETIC ACID]: 14
CC(C)[C@H](CO)Nc1nc(Nc2cccc(Cl)c2)c2ncn(C(C)C)c2n1 [PURVALANOLA]: 18
CN1C(=O)[C@@H](NC(=O)c2cc3ccccc3[nH]2)N=C(c2ccccc2)c2ccccc21 [DEVAZEPIDE]: 12

Let's switch to this compound now.
Problem: Entry `Cc1c(Nc2ccc(S(=O)(=O)N3CCN(C)CC3)cc2F)nc2ccc(-c3cnn(C4CC4)c3)cn2c1=O` , system Fibroblast: what Population Pyknosed Nuclei (%) was measured?
Solution: 13

---

# System: U2OS
# experiment: Incucyte cell viability with U2OS; further: filed as whole numbers so only -1 and 0 and 1 occur
# Format: toxicity, cell-based
# particulars: human, 24 h, 10 µM, compound concentration 10 uM, replicate number 2, timepoint 24 hours
readout-label: Growth Rate
No unit in the answer, only the number.

c1ccc(-c2oc3ncnc(NC[C@@H]4CCCO4)c3c2-c2ccccc2)cc1: 1
COc1ccc(Br)cc1S(=O)(=O)NC(=O)/C=C/c1ccccc1Cc1ccc2ccccc2c1: 0
CCN1CCC[C@H]1CNC(=O)c1c(OC)ccc(Br)c1OC [REMOXIPRIDE]: 1

Problem: If you can, please state the reported Growth Rate value of `CCOC(=O)c1ncn2c1CN(C)C(=O)c1cc(F)ccc1-2` .
Solution: 1

Problem: Could you do the same for `c1cc(CN2CCCNCCNCCCNCC2)ccc1CN1CCCNCCNCCCNCC1` , please?
Solution: 0

---

# Test system: HEK-293T
# experiment: Multiplex assay against HEK293T
# Type: toxicity, cell-based
# particulars: human, 12 h, 10 µM, compound concentration 10 uM, replicate 1
We begin with a simple list: items and their reported Population Apoptotic (%).
Response body: numeric value in %, unit text excluded.

CC[C@H](Nc1ncnc2[nH]cnc12)c1nc2cccc(F)c2c(=O)n1-c1ccccc1: 18
CC(C)c1cc(Nc2nc(N3CCC[C@H](N)C3)ncc2C(N)=O)cc(C(C)C)n1: 88

Problem: I'd like to know its Population Apoptotic (%). The compound in question is `Oc1cccc(-c2nc(N3CCOCC3)c3oc4ncccc4c3n2)c1`
Solution: 72

Problem: What about `CCCCN(CC)c1nc(C)nc2c1c(C)cn2-c1c(C)cc(C)cc1C.Cl` ?
Solution: 59

---

# Tested on: U2OS
# experiment: Multiplex assay against U2OS
# Type: toxicity, cell-based
# particulars: human, 24 h, 1 µM, compound concentration 1 uM, replicate 1
readout-label: Population Pyknosed Nuclei (%)
Express it in %; write the number only.

Cc1ccc(NC(=O)Nc2cc(C(F)(F)F)ccc2F)cc1Nc1ccc2c(c1)NC(=O)/C2=C\c1ccc[nH]1: 32
CC(C)C[C@H](NC(=O)[C@H](Cc1ccccc1)NC(=O)CNC(=O)CNC(=O)[C@@H](N)Cc1ccc(O)cc1)C(=O)O: 9
C=CC(=O)Nc1cc(-n2c(=O)ccc3cnc4ccc(-c5ccc(NS(C)(=O)=O)cc5)cc4c32)ccc1C: 6
CN(c1cc(C(F)(F)F)nc(OCCC(=O)O)n1)c1cccc2c1CCC2: 6
C[C@@H](Oc1cc(-n2cnc3ccc(CN4CCN(C)CC4)cc32)sc1C(N)=O)c1ccccc1C(F)(F)F: 17

Problem: Which Population Pyknosed Nuclei (%) value is on record for `CCOc1ccn(-c2ccc(F)cc2)c(=O)c1C(=O)Nc1ccc(Oc2ccnc(N)c2Cl)c(F)c1` ?
Solution: 7

Problem: Also, `CCOC(=O)CCNc1cc(N2CCc3ccccc3CC2)nc(-c2ccccn2)n1` please.
Solution: 3

Problem: Do the same for `CC(/C=C1\SC(=S)N(CCCC(=O)Nc2ccc(C(=O)O)c(O)c2)C1=O)=C\c1ccccc1` please
Solution: 10

---

# System: HEK-293T
# experiment: Multiplex assay against HEK293T
# Type: toxicity, cell-based
# particulars: human, 24 h, 10 µM, compound concentration 10 uM, replicate 1
Binary label based on Population Membrane Permeable-Phenotype (%) with cut-off 5%: below gives Satisfied, not below gives Not satisfied.

Cl.Cn1c2c(c3ccc(Cl)c(Cl)c31)C(C#N)C1(CCNCC1)NC2=O (stereo not given): Not satisfied
CC(C)[C@H](CO)Nc1nc(Nc2cccc(Cl)c2)c2ncn(C(C)C)c2n1: Satisfied
C[C@@H](Oc1cc(-n2cnc3ccc(CN4CCN(C)CC4)cc32)sc1C(N)=O)c1ccccc1C(F)(F)F: Satisfied

Shifting focus to the molecule that follows.
Problem: Lab note: Population Membrane Permeable-Phenotype (%) threshold 5%. Does this molecule come in strictly under it? `CCCCN(CC)c1nc(C)nc2c1c(C)cn2-c1c(C)cc(C)cc1C.Cl`
Solution: Satisfied

---

# Test system: HEK-293T
# experiment: Incucyte cell viability with HEK293T; further: filed as whole numbers so only -1 and 0 and 1 occur
# Format: toxicity, cell-based
# particulars: human, 6 h, 10 µM, compound concentration 10 uM, replicate number 1, timepoint 6 hours
readout-label: Growth Rate
Just the number, please, no unit attached.

COc1ncc(F)cc1CNc1ccc(Cc2c[nH]c3ncc(C)cc23)c(F)n1 [PLX-5622]: 1

Problem: // returns reported Growth Rate for input `C/C(=C/C=C/C(C)=C/C(=O)O)c1cc(C(C)(C)C)cc(C(C)(C)C)c1OCC(F)F`
Solution: 0

Problem: Could you do the same for `COc1cc(N2CCC(O)CC2)ccc1Nc1cc(Nc2ccccc2S(=O)(=O)C(C)C)c2cc[nH]c2n1` , please?
Solution: 0

Problem: Repeat with CCCCCNC(=N)N/N=C/c1c[nH]c2ccc(OC)cc12.O=C(O)/C=C\C(=O)O [TEGASEROD MALEATE]
Solution: 0

Problem: Do the same for CC[C@H](Nc1ncnc2[nH]cnc12)c1nc2cccc(F)c2c(=O)n1-c1ccccc1 [IDELALISIB] please
Solution: 0

Problem: Let us now turn to `c1ccc(-c2oc3ncnc(NC[C@@H]4CCCO4)c3c2-c2ccccc2)cc1`
Solution: 0

Problem: For O=C1c2ccc(Nc3ccc(F)cc3F)cc2CCc2ccc(OC[C@H](O)CO)cc21 [Skepinone-L] then?
Solution: 0

Problem: Param item: CC(C)(N)C(=O)N[C@H](COCc1ccccc1)C(=O)N1CCC2(CC1)CN(S(C)(=O)=O)c1ccccc12.CS(=O)(=O)O [IBUTAMOREN MESYLATE]
Solution: 0

---

# Test system: HEK-293T
# experiment: Multiplex assay against HEK293T
# Type: toxicity, cell-based
# particulars: human, 48 h, 10 µM, compound concentration 10 uM, replicate 1
readout-label: Population Mitochondria Different-Phenotype (%)
Give the quantity in %, number only.

Problem: Look up Population Mitochondria Different-Phenotype (%): `CC(/C=C1\SC(=S)N(CCCC(=O)Nc2ccc(C(=O)O)c(O)c2)C1=O)=C\c1ccccc1`
Solution: 26

Problem: Query `c1ccc(-c2oc3ncnc(NC[C@@H]4CCCO4)c3c2-c2ccccc2)cc1` next
Solution: 96

Problem: Please do the same for CN1C(=O)[C@@H](NC(=O)c2cc3ccccc3[nH]2)N=C(c2ccccc2)c2ccccc21 [DEVAZEPIDE] as well.
Solution: 100

Problem: Same again, this time with `Oc1cccc(-c2nc(N3CCOCC3)c3oc4ncccc4c3n2)c1`
Solution: 94

Problem: What do you get for `CC(C)C[C@H](NC(=O)[C@H](Cc1ccccc1)NC(=O)CNC(=O)CNC(=O)[C@@H](N)Cc1ccc(O)cc1)C(=O)O` ?
Solution: 22

Problem: How about `CN(c1cc(C(F)(F)F)nc(OCCC(=O)O)n1)c1cccc2c1CCC2` ?
Solution: 14

Problem: Also CCCCCNC(=N)N/N=C/c1c[nH]c2ccc(OC)cc12.O=C(O)/C=C\C(=O)O [TEGASEROD MALEATE] ?
Solution: 0

Problem: `CC(C)[C@H](CO)Nc1nc(Nc2cccc(Cl)c2)c2ncn(C(C)C)c2n1` ?
Solution: 99

Problem: Okay, and `CC(C)c1cc(Nc2nc(N3CCC[C@H](N)C3)ncc2C(N)=O)cc(C(C)C)n1` ?
Solution: 100

Problem: Do the same for `Cc1ccc(S(=O)(=O)NC2c3ccccc3Oc3ccccc32)cc1` please
Solution: 27

Problem: What about this compound? `N#CCNC(=O)c1ccc(-c2ccnc(Nc3ccc(N4CCOCC4)cc3)n2)cc1`
Solution: 46

Problem: What about this compound? `Cc1c(P(=S)(c2ccccc2)c2ccccc2)n2ccccc2[n+]1C/C=C/c1ccccc1.[Br-]`
Solution: 100

Problem: // repeat for `Cl.NC[C@@H]1O[C@H](C23CC4CC(CC(C4)C2)C3)Cc2c1ccc(O)c2O` and report
Solution: 0

Problem: Another: CC(Cc1ccc(O)c(O)c1)C(C)Cc1ccc(O)c(O)c1 (stereo not given) [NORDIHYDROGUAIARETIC ACID]
Solution: 5

Problem: Same question, `CCCc1cc(C)[nH]c(=O)c1CNC(=O)c1cc(-c2ccc(N3CCN(C(C)C)CC3)nc2)cc2c1cnn2C(C)C` this time
Solution: 94
